System Name: T1, C-X-C motif chemokine receptor 4 (CXCR4) on Jurkat cells (human (endogenous in Jurkat), UniProt P61073 1-352)
T1 chain: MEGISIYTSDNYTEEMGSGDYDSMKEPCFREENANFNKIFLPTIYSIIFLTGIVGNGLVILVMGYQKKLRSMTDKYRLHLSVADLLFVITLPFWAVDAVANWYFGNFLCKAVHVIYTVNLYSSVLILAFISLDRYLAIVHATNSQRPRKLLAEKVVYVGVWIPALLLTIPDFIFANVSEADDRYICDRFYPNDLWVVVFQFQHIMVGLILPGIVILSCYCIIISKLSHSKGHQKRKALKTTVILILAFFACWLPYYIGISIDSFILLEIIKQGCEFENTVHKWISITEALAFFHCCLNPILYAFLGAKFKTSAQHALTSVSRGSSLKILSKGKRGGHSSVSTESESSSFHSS
pIC50: −log10 of the molar value. Square brackets hold non-standard residues; d marks the D form. Side chains are listed from the residue outwards. Ends that are not written are not given here. * marks the point of attachment. DOTA = O=C(O)CN1CCN(CC(=O)O)CCN(CC(=O)*)CCN(CC(=O)O)CC1; Palmitoyl = CCCCCCCCCCCCCCCC(=O)*
Label Fulfilled when pIC50 >= 7; otherwise Not fulfilled.

Illustrative cases are given below, each with its answer.
binder="ILRWSRKLPCVSK(DOTA) (also: natLu complexed by DOTA, natLu and 177Lu complexes are written as one molecule; they differ only in the isotope; also called ^177Lu-1; Lu complex of ligand-1 (monomer); source: synthetic peptide, complexed with natLuCl3, monomer isolated by semipreparative RP-HPLC; ^177Lu form labelled with 177LuCl3 in the presence of DTT) [^natLu-1]" class_name=Fulfilled
binder="[dI]LRWSRKK(DOTA)-NH2 (also: natLu complexed by DOTA, natLu and 177Lu complexes are written as one molecule; they differ only in the isotope; also called ^177Lu-7; Lu complex of ligand-7; source: synthetic peptide, complexed with natLuCl3; ^177Lu form labelled with 177LuCl3) [^natLu-7]" class_name="Not fulfilled"

Please tell me: is the binder [dL]LRWSRK([Glu-Palmitoyl])K(DOTA)-NH2 (also: natLu complexed by DOTA, natLu and 177Lu complexes are written as one molecule; they differ only in the isotope; also called ^177Lu-9; Lu complex of ligand-9; source: synthetic peptide, complexed with natLuCl3; ^177Lu form labelled with 177LuCl3) [^natLu-9] at or over 7 in terms of pIC50?
Fulfilled
